test: yeast display, Sf9 membrane polyspecificity reagent, FACS + sequencing; frameworks hold sequencing errors
measured_quantity: polyreactivity (PSR sort gate)

Sample records with polyreactivity (PSR sort gate):
QVQLQESGGGLVQAGGSLRLSGAASGSISSRDAMGWYRQAPGKEREFVATIASGTTTYYADSVKGSFTISRDNAENTVYLQTNSLKPEDTAVYYCAAPTIQIYPFYYWGQGTQVTVSS; high polyreactivity
QVQLVDSGGGLVQAGGSLRLSCAASGFIFTQYAMGWYRQAPGQDRELVAAISRSGSSTYYADSVKGRFTISRDNAKNTVSLQMNSLKPEDTAVYYCAAKGSRGTRYWGEDYWGQGTQVTVSS; low polyreactivity
QVQLVESGGGLVQAGGSLRLSCAASGSTFVTYTMGWYRQAPGKERELVAAISWSGDTTYADSVKGRFTISRDNAKNTVYLQMNSLKPVDTAVYYCAADDDWSGVEFDYLGQGTQVTVSS; low polyreactivity
QVQLVESGGGCSGGRSLRLSCAASGLIFVDNAMGWYRQAPGKERELVAAITWSTGSTYYADSVKGRFTISRDNAKNTVYLQMNSLKPEDTAVYYCNKRYKYRYYYWGQGTQVTVSS; low polyreactivity
QVQLVESGGGLVQAGGSLRLSCAASGSTFPRNDMGWYRQAPGKERELVAAISRGGSTNYADSVKGRFTISRDNAKNTVYLQMNSLKPEDTAVYYCAAQIFECAYGMDYWGQGTQVTVSS; low polyreactivity
QVQLVESGGGLVQAGGSLRLSCAASGFTCTYYAMGWYRQAPGKERELVAAITRGGITNYADSVKGRFTISRDNAKNTVYLQMNSLKPEDTAVYYCAADYWNFNWRYKLYRPYDYWGQGTQVTVSS; high polyreactivity
QVQLVESGGGLVQAGGSLRLSCAPSGSTFDPFAMGWYRQAPGKERELVADITSSDGSTYYADSVKGRFTISRDNAKNTVYFQMNSLKPEVTAVYYCYSDYRYFWTYWGWSIYDYWGQGTQVTVSS; high polyreactivity
QVQLVESGGGLVQAGGSLRLSCAASGSIFSYYAMGWYRQAPGKERELVADITANDGSTYYADSVKGRFTISRDNAKNTVYLQMHSLKPEVTAVYYCAAASDLYGSIWIETGVTSDYWGQGTQVTVSS; high polyreactivity
QVQLVESGGGLVQAGGSLRLSCAASGFTFYGYAMGWYRQAPGKERELVAAISTRGSRTYYADSVKGRFTISRDNSKNTVYLQMNSLKPEDTAVYYCAARKKHSGYGRGNYWGQGTQVTVSS; high polyreactivity
QVQLVESGGGLDQAGGSLRLSCAASGRIFVGYARGWYRQAPVKERELVASITGRGTSTYYADSVKGRFTISRDNAKNTVYLQMNSLKPEDTAVYYCNALYRKYRNQWYISNYGYYYWGQGTQVTVSS; low polyreactivity

input: Can you look up the measured polyreactivity (PSR sort gate) of "QVQLVESGGGLVQAGGSLRLSCAASGSIFDVYAMGWYRQAPGKERELVATISNSAGSTYYADSVKGRFTISRDNAKKTVYLQMNSLKPEDTAVYYCAAVVLYFEEYDYWGQGTQVTVSS" for me?
output: low polyreactivity

From: the nanobody polyreactivity screen of Harvey et al. (2022)
